Give measured EC50 for each item. Keep answers brief.
# Assay Target: human E3 ligase component cereblon (CRBN) (Homo sapiens (Human), UniProt Q96SW2)
# Test: Cereblon (CRBN) target engagement, NanoBRET TE Intracellular E3 Ligase Assay in transfected HEK-293T cells
# Test Parameters: read-out: CRBN Binding EC50
# Experimental: HEK293T cells were harvested ca. 75% confluent with trypsin and plated (500,000 cells/well) in a 6-well tissue culture plate in 2 mL of Dulbecco's Modified Eagle Medium (DMEM)+10% Fetal Bovine Serum (FBS) and incubated overnight at 37° C. […] Cereblon target engagement was monitored by Bioluminescence Resonance Energy Transfer (BRET) in transfected HEK-293T cells using the NanoBRET TE Intracellular E3 Ligase Assay (Promega). […]
Provide a numeric answer, followed by its unit.

Query :: Return reported EC50; argument: N#Cc1ccc(C2CN(C3CCCC3Oc3ccc4c(c3)CN(C3CCC(=O)NC3=O)C4=O)C2)cc1 (stereo not drawn) [Compound 98]
Result :: 32 nM

Query :: If you can, please state the reported EC50 value of N#Cc1ccc(C2CN([C@@H]3CCCC[C@@H]3Oc3ccc4c(c3)CN(C3CCC(=O)NC3=O)C4=O)C2)c(Cl)c1 (mixture of isomers) [Compound 75] .
Result :: 12 nM

Query :: For O=C1CCC(N2Cc3cc(O[C@H]4CCCC[C@@H]4N4CC(c5cccc(OC(F)F)c5)C4)ccc3C2=O)C(=O)N1 (stereo partly drawn) [Compound 80] , what is its reported EC50?
Result :: 8 nM

Query :: If you can, please state the reported EC50 value of N#Cc1ccc(C2CN([C@@H]3CCCC[C@@H]3Oc3ccc4c(c3)CN(C3CCC(=O)NC3=O)C4=O)C2)c(F)c1 (mixture of isomers) [Compound 115] .
Result :: 12 nM

Query :: Query: EC50; subject: N#Cc1cc(F)ccc1C1CN([C@H]2CCCC[C@@H]2Oc2ccc3c(c2)CN(C2CCC(=O)NC2=O)C3=O)C1 (single isomer, unassigned) [Compound 45]
Result :: 22 nM

Query :: Give the measured EC50 of O=C1CCC(N2Cc3cc(O[C@H]4CCCC[C@@H]4N4CC(c5ccc(F)cc5)C4)ccc3C2=O)C(=O)N1 (single isomer, unassigned) [Compound 50] .
Result :: 4 nM

###

Please provide measured DC50 for the entries that follow.
# Assay Target: GSPT1 (Homo sapiens (Human), UniProt P15170+Q96SW2)
# Sequence (P15170 whole entry): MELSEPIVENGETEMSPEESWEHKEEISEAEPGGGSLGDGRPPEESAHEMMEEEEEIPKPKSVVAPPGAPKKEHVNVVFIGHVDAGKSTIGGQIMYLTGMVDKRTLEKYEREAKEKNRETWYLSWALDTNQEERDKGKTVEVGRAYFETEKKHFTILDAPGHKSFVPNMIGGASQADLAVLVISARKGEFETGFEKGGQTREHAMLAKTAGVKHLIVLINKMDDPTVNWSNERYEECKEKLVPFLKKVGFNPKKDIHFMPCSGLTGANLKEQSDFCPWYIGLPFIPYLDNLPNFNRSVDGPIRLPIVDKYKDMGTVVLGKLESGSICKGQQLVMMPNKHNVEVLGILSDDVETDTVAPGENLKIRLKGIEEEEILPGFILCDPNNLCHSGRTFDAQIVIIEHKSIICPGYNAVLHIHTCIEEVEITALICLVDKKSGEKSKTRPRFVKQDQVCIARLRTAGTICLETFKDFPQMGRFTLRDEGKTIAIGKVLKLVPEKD
# Sequence (Q96SW2 whole entry): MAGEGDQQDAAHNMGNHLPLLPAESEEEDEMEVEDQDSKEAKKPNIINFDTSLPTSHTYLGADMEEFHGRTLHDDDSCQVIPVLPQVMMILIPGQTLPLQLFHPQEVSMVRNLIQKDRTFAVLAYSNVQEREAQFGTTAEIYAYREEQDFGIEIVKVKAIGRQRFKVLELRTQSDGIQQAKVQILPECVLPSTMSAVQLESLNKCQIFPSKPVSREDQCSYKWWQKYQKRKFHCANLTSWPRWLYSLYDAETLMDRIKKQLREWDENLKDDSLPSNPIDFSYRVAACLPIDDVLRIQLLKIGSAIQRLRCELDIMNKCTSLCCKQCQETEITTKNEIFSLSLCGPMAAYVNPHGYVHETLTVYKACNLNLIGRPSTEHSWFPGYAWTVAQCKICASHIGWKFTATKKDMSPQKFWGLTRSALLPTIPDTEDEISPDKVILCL
# Sequence (Q16531 whole entry partner): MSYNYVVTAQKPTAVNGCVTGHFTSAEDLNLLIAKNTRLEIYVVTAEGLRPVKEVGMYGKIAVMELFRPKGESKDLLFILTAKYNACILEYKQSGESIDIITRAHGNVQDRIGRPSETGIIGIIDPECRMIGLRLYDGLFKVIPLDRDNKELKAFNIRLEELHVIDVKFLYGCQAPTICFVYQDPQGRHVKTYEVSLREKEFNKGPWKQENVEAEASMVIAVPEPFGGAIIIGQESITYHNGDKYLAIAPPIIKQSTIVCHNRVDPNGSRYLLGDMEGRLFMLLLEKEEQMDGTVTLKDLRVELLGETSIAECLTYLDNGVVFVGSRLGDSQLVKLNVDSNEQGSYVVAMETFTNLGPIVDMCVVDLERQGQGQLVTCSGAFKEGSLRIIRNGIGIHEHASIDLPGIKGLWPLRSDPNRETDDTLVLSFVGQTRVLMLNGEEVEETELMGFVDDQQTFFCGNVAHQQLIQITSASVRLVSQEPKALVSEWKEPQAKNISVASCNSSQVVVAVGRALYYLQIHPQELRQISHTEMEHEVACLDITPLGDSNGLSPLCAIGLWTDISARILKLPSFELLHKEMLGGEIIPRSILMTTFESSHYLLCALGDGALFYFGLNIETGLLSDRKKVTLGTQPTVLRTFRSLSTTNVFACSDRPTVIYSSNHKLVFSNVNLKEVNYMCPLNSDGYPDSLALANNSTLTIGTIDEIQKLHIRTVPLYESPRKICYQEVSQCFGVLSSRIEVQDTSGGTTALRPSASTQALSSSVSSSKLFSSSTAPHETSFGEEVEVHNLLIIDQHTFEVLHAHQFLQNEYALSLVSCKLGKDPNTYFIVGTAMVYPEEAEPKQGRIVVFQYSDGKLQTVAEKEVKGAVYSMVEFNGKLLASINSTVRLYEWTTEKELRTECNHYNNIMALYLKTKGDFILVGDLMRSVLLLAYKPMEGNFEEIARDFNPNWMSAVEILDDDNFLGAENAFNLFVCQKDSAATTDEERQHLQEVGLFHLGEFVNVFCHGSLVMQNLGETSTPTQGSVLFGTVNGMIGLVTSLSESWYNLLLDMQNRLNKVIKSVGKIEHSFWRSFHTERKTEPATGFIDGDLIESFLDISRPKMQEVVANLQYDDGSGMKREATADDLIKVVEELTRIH
# Test: GSPT1 reporter degradation assay (HEK293 hGSPT1 HiBiT-tagged cells)
# Format: cell-based
# Test Parameters: 24 hour incubation

Query :: Param readout= DC50; system= GSPT1 (Homo sapiens (Human), UniProt P15170+Q96SW2); entry= O=C1CCC(N2Cc3cc(O[C@H]4CCCC[C@@H]4N4CC(c5cccc(F)c5F)C4)ccc3C2=O)C(=O)N1 (stereo partly drawn) [Compound 64] ; returns value.
Result :: > 30 µM

Query :: DC50 of O=C1CCC(N2Cc3c(ccc(O[C@H]4CCCC[C@@H]4N4CC(c5ccccc5)C4)c3F)C2=O)C(=O)N1 (single isomer, unassigned) [Compound 65] on GSPT1 (Homo sapiens (Human), UniProt P15170+Q96SW2)?
Result :: > 30 µM

Query :: Any idea what DC50 came out for O=C1CC[C@@H](N2Cc3cc(O[C@H]4CCCC[C@@H]4N4CC(c5ccccc5)C4)ccc3C2=O)C(=O)N1 [Compound 125] on GSPT1 (Homo sapiens (Human), UniProt P15170+Q96SW2)?
Result :: > 30 µM

###

I'd appreciate it if you could supply EC50 values for the items below.
# Assay Target: human E3 ligase component cereblon (CRBN) (Homo sapiens (Human))
# Test: Cereblon (CRBN) target engagement, NanoBRET TE Intracellular E3 Ligase Assay in transfected HEK-293T cells
# Test Parameters: read-out: CRBN Binding EC50

Query :: // lookup EC50 for O=C1CCC(N2Cc3cc(O[C@H]4CCCC[C@@H]4N4CC(c5ccccc5OC(F)(F)F)C4)ccc3C2=O)C(=O)N1 (some centres unmarked) [Compound 36]
Result :: 31 nM

Query :: # query: EC50 of entry O=C1CCC(N2Cc3c(ccc(O[C@H]4CCCC[C@@H]4N4CC(c5ccccc5)C4)c3F)C2=O)C(=O)N1 (single isomer, unassigned) [Compound 65]
Result :: 52 nM

Query :: # input compound: O=C1CC[C@@H](N2Cc3cc(O[C@H]4CCCC[C@@H]4N4CC(c5ccccc5)C4)ccc3C2=O)C(=O)N1 [Compound 125] ; wanted: its EC50
Result :: 6 nM

Query :: Suppose we examine the compound O=C1CCC(N2Cc3cc(O[C@H]4CCCCC[C@@H]4N4CC(c5ccccc5)C4)ccc3C2=O)C(=O)N1 (some centres unmarked) [Compound 131] ; what EC50 value has been reported?
Result :: 11 nM

Query :: GET /values?readout=EC50&item= O=C1CCC(N2Cc3cc(O[C@H]4CCCC[C@@H]4N4CC(c5cccc(O)c5)C4)ccc3C2=O)C(=O)N1 (some centres unmarked) [Compound 134]
Result :: 12 nM

Query :: What does the record list as EC50 for N#Cc1cc(F)ccc1C1CN([C@H]2CCCC[C@@H]2Oc2ccc3c(c2)CN(C2CCC(=O)NC2=O)C3=O)C1 (single isomer, unassigned) [Compound 44] ?
Result :: 65 nM

Query :: May I ask what EC50 has been recorded for O=C1CCC(N2Cc3cc(O[C@H]4CCCC[C@@H]4N4CC(c5ccc(F)cc5)C4)ccc3C2=O)C(=O)N1 (some centres unmarked) [Compound 123] ?
Result :: 11 nM

Query :: Looking for the measured EC50 of N#Cc1ccccc1C1CN([C@H]2CCCC[C@H]2Oc2ccc3c(c2)CN(C2CCC(=O)NC2=O)C3=O)C1 (mixture of isomers) [Compound 109] , can you help?
Result :: 37 nM

Query :: Which measured EC50 value corresponds to O=C1CCC(N2Cc3cc(O[C@H]4CCCC[C@@H]4N4CC(c5ccccc5O)C4)ccc3C2=O)C(=O)N1 (some centres unmarked) [Compound 133] ?
Result :: 14 nM

Query :: Recorded EC50 of O=C1NC(=O)C2(N3Cc4cc(O[C@H]5CCCC[C@@H]5N5CCC(c6ccccc6)C5)ccc4C3=O)CC1C2 (some centres unmarked) [Compound 106] , please.
Result :: > 10000 nM

Query :: Can you look up the measured EC50 of N#Cc1ccc(C2CN([C@H]3CCCC[C@H]3Oc3ccc4c(c3)CN(C35CC(C3)C(=O)NC5=O)C4=O)C2)cc1 (racemic) [Compound 92] for me?
Result :: > 10000 nM

Query :: Fill blank: measured EC50 of the compound N#Cc1ccc(C2CN([C@H]3CCCC[C@@H]3Oc3ccc4c(c3)CN(C35CC(C3)C(=O)NC5=O)C4=O)C2)cc1 (racemic) [Compound 93] is ____.
Result :: > 10000 nM

Query :: Item under review: O=C1CCC(N2Cc3cc(O[C@H]4CCCC[C@@H]4N4CC(c5cccc(N6CCOCC6)c5)C4)ccc3C2=O)C(=O)N1 (some centres unmarked) [Compound 112] . Reported EC50?
Result :: 25 nM

Query :: Item under review: O=C1CCC(N2Cc3cc(O[C@H]4CCCC[C@@H]4N4CC(c5cccc(F)c5F)C4)ccc3C2=O)C(=O)N1 (some centres unmarked) [Compound 64] . Reported EC50?
Result :: 11 nM

Query :: Given the compound N#Cc1cc(Cl)ccc1C1CN([C@@H]2CCCC[C@@H]2Oc2ccc3c(c2)CN(C2CCC(=O)NC2=O)C3=O)C1 (mixture of isomers) [Compound 100] , what is its reported EC50?
Result :: 25 nM

Query :: Dear colleague, I am looking for the recorded EC50 of the following compound: O=C1CCC(N2Cc3cc(OC4CCCCC4N4CC(c5cccc(OC(F)(F)F)c5)C4)ccc3C2=O)C(=O)N1 (centres unmarked) [Compound 67]
Result :: 17 nM

Query :: Given the compound O=C1CCC(N2Cc3cc(O[C@H]4CCCC[C@@H]4N4CC(c5ccccc5C(F)(F)F)C4)ccc3C2=O)C(=O)N1 (some centres unmarked) [Compound 129] , what is its reported EC50?
Result :: 17 nM

Query :: Bench note: what EC50 did O=C1CCC(N2Cc3cc(O[C@H]4CCCC[C@@H]4N4CC(c5cccc(F)c5)C4)ccc3C2=O)C(=O)N1 (some centres unmarked) [Compound 111] show?
Result :: 6 nM

Query :: Please give the measured EC50 for this compound: O=C1CCC(N2Cc3cc(OC4CCCCC4N4CC(c5ccccc5C(F)(F)F)C4)ccc3C2=O)C(=O)N1 (centres unmarked) [Compound 69]
Result :: 25 nM

Query :: // query EC50 value for entry N#Cc1cccc(C2CN([C@H]3CCCC[C@H]3Oc3ccc4c(c3)CN(C3CCC(=O)NC3=O)C4=O)C2)c1 (mixture of isomers) [Compound 76]
Result :: 22 nM

Query :: Fill in: EC50 of N#Cc1cc(Cl)ccc1C1CN([C@H]2CCC[C@H]2Oc2ccc3c(c2)CN(C2CCC(=O)NC2=O)C3=O)C1 (mixture of isomers) [Compound 84] is ___
Result :: 14 nM

Query :: Given O=C1CCC(N2Cc3cc(OC4CCCCC4N4CC(c5ccccc5)C4)ccc3C2=O)C(=O)N1 (centres unmarked) [Compound 118] , state its recorded EC50.
Result :: 36 nM

Query :: Name the recorded EC50 for N#Cc1ccc(C2CN([C@H]3CCCC[C@H]3Oc3ccc4c(c3)CN(C35CC(C3)C(=O)NC5=O)C4=O)C2)c(F)c1 (racemic) [Compound 90] .
Result :: > 10000 nM

Query :: Find the recorded EC50 belonging to N#Cc1cc(Cl)ccc1C1CN([C@H]2CCCC[C@@H]2Oc2ccc3c(c2)CN(C2CCC(=O)NC2=O)C3=O)C1 (single isomer, unassigned) [Compound 38] and report it.
Result :: 52 nM

Query :: May I ask what EC50 has been recorded for O=C1NC(=O)C2(N3Cc4cc(O[C@H]5CCC[C@@H]5N5CC(c6ccccc6)C5)ccc4C3=O)CC1C2 [Compound 105] ?
Result :: > 10000 nM

Query :: Returns the measured EC50 for the input compound. Input: O=C1NC(=O)C2(N3Cc4cc(O[C@H]5CCCC[C@@H]5N5CC(c6ccc(F)cc6Cl)C5)ccc4C3=O)CC1C2 [Compound 85]
Result :: > 10000 nM
